Numbers sourced from the supplement of paper PMC8728848.

# TARGET_OF_ASSAY: Man(a1-2)Man(a1-2)Man(a1-3)Man
# ASSAY_EXPLANATION: glycan array binding signal (z-score within array); higher = stronger binding
# CONDITION_SUMMARY: glycan notation: IUPAC condensed, linker removed
The full list was thinned out, with the strongest signals kept by preference.
Reported glycan array binding signal (z-score) values are given for each entry in this list.

BINDER	glycan array binding signal (z-score)
EULS2 M2 (Oryza sativa) (protein) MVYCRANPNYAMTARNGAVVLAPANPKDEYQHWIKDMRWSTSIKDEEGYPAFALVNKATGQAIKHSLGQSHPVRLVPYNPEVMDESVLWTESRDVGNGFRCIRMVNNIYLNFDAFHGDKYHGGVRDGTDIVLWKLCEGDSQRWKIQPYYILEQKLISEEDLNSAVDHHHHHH	-0.332
DCIR1 (Mus musculus), Q9QZ15 (protein) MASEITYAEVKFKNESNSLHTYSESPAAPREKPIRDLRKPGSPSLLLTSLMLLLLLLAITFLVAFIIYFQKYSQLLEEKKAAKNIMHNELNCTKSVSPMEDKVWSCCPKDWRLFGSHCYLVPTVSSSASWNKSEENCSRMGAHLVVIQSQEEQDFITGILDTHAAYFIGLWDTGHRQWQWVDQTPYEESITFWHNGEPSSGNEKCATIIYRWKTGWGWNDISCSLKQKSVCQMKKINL	-0.962
